Target: cAMP-specific 3',5'-cyclic phosphodiesterase 4C (Homo sapiens)
Sequence (Q08493 whole entry): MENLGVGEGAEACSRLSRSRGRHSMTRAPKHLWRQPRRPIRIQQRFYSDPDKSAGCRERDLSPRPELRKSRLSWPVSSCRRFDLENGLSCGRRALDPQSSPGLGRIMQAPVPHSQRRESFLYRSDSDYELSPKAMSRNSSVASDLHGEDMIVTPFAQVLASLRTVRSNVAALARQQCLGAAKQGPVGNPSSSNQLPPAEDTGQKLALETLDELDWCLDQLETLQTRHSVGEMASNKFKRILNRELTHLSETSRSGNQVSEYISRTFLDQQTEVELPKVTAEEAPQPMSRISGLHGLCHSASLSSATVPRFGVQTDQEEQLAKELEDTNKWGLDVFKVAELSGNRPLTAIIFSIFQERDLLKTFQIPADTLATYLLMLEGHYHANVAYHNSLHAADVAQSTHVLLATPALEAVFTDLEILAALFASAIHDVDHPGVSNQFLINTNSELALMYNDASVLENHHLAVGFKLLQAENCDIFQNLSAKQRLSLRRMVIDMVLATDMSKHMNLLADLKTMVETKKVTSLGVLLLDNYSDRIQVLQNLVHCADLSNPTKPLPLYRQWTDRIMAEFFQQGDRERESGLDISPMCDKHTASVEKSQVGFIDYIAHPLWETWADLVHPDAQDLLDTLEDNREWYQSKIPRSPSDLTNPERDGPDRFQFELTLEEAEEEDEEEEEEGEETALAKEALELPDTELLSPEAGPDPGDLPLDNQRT
Test: PDE4 Activity Assay
Conditions: pH 7.5; 22 °C
Quick reference for pIC50 among some molecules
// scale note: pIC50 = -log10(conc_M); give the bare number

{"smiles": "[O-][n+]1cccc(C[C@@H](c2ccc(OC(F)F)c(OC3CC3)c2)c2ncc(C(O)(C(F)(F)F)C(F)(F)F)s2)c1", "measured_value": 9.00}

Please turn your attention to the following entry.
Exam item: Give the measured pIC50 of [O-][n+]1cccc(C[C@H](c2ccc(OC(F)F)c(OC3CC3)c2)c2ncc(C(O)(C(F)(F)F)C(F)(F)F)s2)c1 .
Marked response: 6.87
